# target_system: apo APE1^ΔN38 (Homo sapiens)
# Construct: Human APE1 lacking the 38 N-terminal residues (APE1^ΔN38); poly-His (N, cleaved yes); made in house; host or cells: E. coli
# Sequence (P27695 39-318): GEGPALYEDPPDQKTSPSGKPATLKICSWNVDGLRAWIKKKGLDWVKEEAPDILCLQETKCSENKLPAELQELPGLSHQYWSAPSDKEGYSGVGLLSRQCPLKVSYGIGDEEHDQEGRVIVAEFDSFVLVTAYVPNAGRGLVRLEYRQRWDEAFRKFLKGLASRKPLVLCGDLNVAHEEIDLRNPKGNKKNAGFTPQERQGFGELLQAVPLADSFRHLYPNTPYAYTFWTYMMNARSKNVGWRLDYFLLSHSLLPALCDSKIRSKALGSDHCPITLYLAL
# protocol_notes: NMR chemical shift perturbation (15N-TROSY), apo APE1
# Assay type: binding
# measurement_setup: apo APE1^ΔN38 0.15 mM, compound 1 mM
quantity_kind: number of residues with substantial CSPs (Δδ ≥ 0.015 ppm)
One number for each entry.

O=C(O)c1cc2cccc([N+](=O)[O-])c2[nH]1 [Compound 1, 7-nitroindole-2-carboxylic acid]    14

For every record below, what is its number of residues with substantial CSPs (Δδ ≥ 0.015 ppm)?
1. O=C(O)c1cc2cc([N+](=O)[O-])ccc2[nH]1 [Compound 3, 5-nitroindole-2-carboxylic acid]
2. O=C(O)c1cc2ccc(Br)cc2[nH]1 [Compound 4, 6-bromoindole-2-carboxylic acid]

Output line:
1: 20; 2: 22

====

# protocol_notes: Dynamic light scattering (DLS) of compound aggregation
# Type: physicochemical
# measurement_setup: detergent-free assay buffer, 1% DMSO, 20°C
I'd be grateful if you could share measured concentration at which colloidal aggregates form for these entries.
One number for each entry, in µM.

O=C(O)c1cc2cc(F)ccc2[nH]1 [Compound 2, 5-fluoroindole-2-carboxylic acid]    10000

Now turn to the next compound.
Data point: O=C(O)c1cc2cccc([N+](=O)[O-])c2[nH]1 [Compound 1, 7-nitroindole-2-carboxylic acid] ; concentration at which colloidal aggregates form = 2000
